target: Cyclin-dependent kinase 12 (Homo sapiens, UniProt Q9NYV4); assay: Inhibition of CDK12 (unknown origin) at 1 uM in presence of ATP by kinase-glo plus luminescent assay relative to control
Sequence (Q9NYV4 whole entry, looked up): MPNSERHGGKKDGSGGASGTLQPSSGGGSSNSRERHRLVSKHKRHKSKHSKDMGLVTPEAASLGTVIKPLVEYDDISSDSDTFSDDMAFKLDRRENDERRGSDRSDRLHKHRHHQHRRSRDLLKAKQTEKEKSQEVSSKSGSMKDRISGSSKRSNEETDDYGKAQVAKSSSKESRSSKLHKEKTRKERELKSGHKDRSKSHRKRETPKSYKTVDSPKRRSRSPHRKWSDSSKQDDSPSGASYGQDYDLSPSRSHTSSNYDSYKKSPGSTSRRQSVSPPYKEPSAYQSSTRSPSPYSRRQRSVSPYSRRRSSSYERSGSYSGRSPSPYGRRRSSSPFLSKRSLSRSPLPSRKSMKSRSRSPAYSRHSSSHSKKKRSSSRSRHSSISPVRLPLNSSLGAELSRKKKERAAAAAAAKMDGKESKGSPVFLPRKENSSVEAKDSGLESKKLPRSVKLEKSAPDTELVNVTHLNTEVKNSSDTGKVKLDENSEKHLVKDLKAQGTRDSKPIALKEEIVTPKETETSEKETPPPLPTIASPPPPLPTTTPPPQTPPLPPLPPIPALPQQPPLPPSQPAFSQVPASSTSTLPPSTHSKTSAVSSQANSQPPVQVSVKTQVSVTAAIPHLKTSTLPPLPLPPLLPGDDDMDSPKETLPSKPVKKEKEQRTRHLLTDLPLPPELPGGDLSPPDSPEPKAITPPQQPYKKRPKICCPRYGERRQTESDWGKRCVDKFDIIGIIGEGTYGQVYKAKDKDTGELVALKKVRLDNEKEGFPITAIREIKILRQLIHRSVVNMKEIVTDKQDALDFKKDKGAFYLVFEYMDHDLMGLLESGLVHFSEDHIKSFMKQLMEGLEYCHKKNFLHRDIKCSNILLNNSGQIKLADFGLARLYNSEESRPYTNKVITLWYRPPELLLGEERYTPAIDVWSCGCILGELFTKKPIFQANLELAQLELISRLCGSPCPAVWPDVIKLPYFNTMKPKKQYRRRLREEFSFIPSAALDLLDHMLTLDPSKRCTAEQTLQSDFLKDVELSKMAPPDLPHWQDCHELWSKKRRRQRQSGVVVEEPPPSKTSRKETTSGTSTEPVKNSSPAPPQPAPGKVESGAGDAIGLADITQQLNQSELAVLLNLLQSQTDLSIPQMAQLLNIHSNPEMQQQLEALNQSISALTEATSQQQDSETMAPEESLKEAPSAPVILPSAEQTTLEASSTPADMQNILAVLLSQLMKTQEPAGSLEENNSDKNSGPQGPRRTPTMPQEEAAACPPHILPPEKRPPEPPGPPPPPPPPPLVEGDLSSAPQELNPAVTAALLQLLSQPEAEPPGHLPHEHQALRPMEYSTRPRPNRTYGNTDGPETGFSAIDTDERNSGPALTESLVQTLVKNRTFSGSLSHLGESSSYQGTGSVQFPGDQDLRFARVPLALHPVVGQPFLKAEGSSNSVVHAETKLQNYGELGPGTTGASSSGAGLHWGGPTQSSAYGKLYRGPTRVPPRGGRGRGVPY
PARAMETER_MEASURED: inhibition (%)

Below: 3 molecules and their reported inhibition.
Exercise: Please supply the value of reported inhibition for the item "NC(=O)c1cccc2[nH]c(NC(=O)c3cccc(C(=O)N4CCN(c5ncc(Cl)cn5)CC4)c3)nc12"
Key: 44.1

Exercise: Specify measured inhibition for "NC(=O)c1cccc2[nH]c(NC(=O)c3cccc(C(=O)N4CCN(c5ncc(Br)cn5)CC4)c3)nc12" .
Key: 46.2

Exercise: Determine its reported inhibition: "N#Cc1cnc(N2CCN(C(=O)c3ccc(C(=O)Nc4nc5c(C(N)=O)cccc5[nH]4)cc3)CC2)nc1"
Key: 28.5

I. NC(=O)c1cccc2[nH]c(NC(=O)c3ccc(C(=O)N4CCC(Nc5ccc(I)cn5)CC4)cc3)nc12
II. NC(=O)c1cccc2[nH]c(NC(=O)c3ccc(C(=O)N4CCN(c5ncc(C(F)(F)F)cn5)CC4)cc3)nc12
III. NC(=O)c1cccc2[nH]c(NC(=O)c3cccc(C(=O)N4CCC(Nc5ncc(C(F)(F)F)cn5)CC4)c3)nc12
Exercise: Sort the molecules on inhibition; start with the lowest figure. Put the labels in the requested order and list them out.
Key: I, II, III

A. NC(=O)c1cccc2[nH]c(NC(=O)c3ccc(C(=O)N4CCN(c5ncc(Cl)cn5)CC4)cc3)nc12
B. NC(=O)c1cccc2[nH]c(NC(=O)c3ccc(C(=O)N4CCC(Nc5ccc(Br)cn5)CC4)cc3)nc12
Exercise: Just tell me: smaller inhibition value, A or B ? Label of pick, please.
Key: B
(B: 25.9%, A: 37.4%)

----------
tested on: MDA-MB-468; test: Antiproliferative activity against human MDA-MB-468 cells assessed as inhibition of cell growth incubated for 24 hrs by MTT assay; assay type: functional, cell-based; settings: MDA-MB-468, 24 h
PARAMETER_MEASURED: IC50 (µM)

Exercise: Please report IC50 for the following compound: "NC(=O)c1cccc2[nH]c(NC(=O)c3ccc(C(=O)N4CCC(Nc5ncc(Cl)cn5)CC4)cc3)nc12"
Key: 23.5

Exercise: Return reported IC50. Input compound: "NC(=O)c1cccc2[nH]c(NC(=O)c3cccc(C(=O)N4CCN(c5ccc(C(F)(F)F)cn5)CC4)c3)nc12"
Key: 27.5

----------
experiment: Half life in Sprague-Dawley rat 1 mg/kg, iv measured upto 24 hrs by LC-MS/MS analysis; format: ADME, organism-based; conditions: in vivo
PARAMETER_MEASURED: half-life (h)
The reply should be a number in h, with the unit left off.

Exercise: Give half-life for the following compound: "NC(=O)c1cccc2[nH]c(NC(=O)c3cccc(C(=O)N4CCC(Nc5ncc(I)cn5)CC4)c3)nc12"
Key: 3

----------
target: UniProt Q9NYV4; assay: Inhibition of CDK12 (unknown origin) at 1 uM in presence of ATP by kinase-glo plus luminescent assay relative to control
PARAMETER_MEASURED: inhibition (%)

Answered cases to consult:
Exercise: Respond only with inhibition recorded for "NC(=O)c1cccc2[nH]c(NC(=O)c3cccc(C(=O)N4CCN(c5ncc(C(F)(F)F)cn5)CC4)c3)nc12"
Key: 52.1

Exercise: Could you please provide reported inhibition for "NC(=O)c1cccc2[nH]c(NC(=O)c3ccc(C(=O)N4CCC(Nc5ncc(Br)cn5)CC4)cc3)nc12" ? Thanks!
Key: 55.4

Exercise: Answer with the recorded inhibition of "NC(=O)c1cccc2[nH]c(NC(=O)c3cccc(C(=O)N4CCC(Nc5ncc(F)cn5)CC4)c3)nc12" only.
Key: 24.3

Exercise: Look up and state reported inhibition for "NC(=O)c1cccc2[nH]c(NC(=O)c3ccc(C(=O)N4CCC(Nc5ncc([N+](=O)[O-])cn5)CC4)cc3)nc12"
Key: 24.1

Exercise: Quickly give me recorded inhibition for "N#Cc1cnc(N2CCN(C(=O)c3cccc(C(=O)Nc4nc5c(C(N)=O)cccc5[nH]4)c3)CC2)nc1"
Key: 32.6

A. NC(=O)c1cccc2[nH]c(NC(=O)c3cccc(C(=O)N4CCC(Nc5ncccn5)CC4)c3)nc12
B. NC(=O)c1cccc2[nH]c(NC(=O)c3ccc(S(=O)(=O)N4CCC(Nc5ncc(Br)cn5)CC4)cc3)nc12
Exercise: Between the entries labelled A and B , which has a larger inhibition value on record? Give the chosen item's label as your response.
Key: B

----------
target: Cyclin-dependent kinase 12 (Homo sapiens, UniProt Q9NYV4); assay: Inhibition of CDK12 (unknown origin) at 1 uM in presence of ATP by kinase-glo plus luminescent assay relative to control
PARAMETER_MEASURED: inhibition (%)

Exercise: Note inhibition for the molecule shown: "CCc1cnc(NC2CCN(C(=O)c3cccc(C(=O)Nc4nc5c(C(N)=O)cccc5[nH]4)c3)CC2)nc1"
Key: 48.7

Exercise: Annotate the molecule "NC(=O)c1cccc2[nH]c(NC(=O)c3ccc(CN4CCC(Nc5ncc(Cl)cn5)CC4)cc3)nc12" with its measured inhibition.
Key: 43.1

Exercise: For "NC(=O)c1cccc2[nH]c(NC(=O)c3cccc(C(=O)N4CCN(c5ncc(I)cn5)CC4)c3)nc12" , write its inhibition.
Key: 49.6
